B1: HDV Ribozyme (parent)
chain: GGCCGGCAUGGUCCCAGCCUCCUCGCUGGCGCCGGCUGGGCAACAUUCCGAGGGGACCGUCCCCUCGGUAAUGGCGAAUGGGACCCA

# Variants of: B1
# experimentalDetails: self-cleavage, relative activity (ratio to wild type); higher = more cleavage; co-transcriptional
Hi all, reminder that labels come from self-cleavage, split as LOW = under 0.2, MEDIUM = from 0.2 up to 0.4, HIGH = 0.4 and over

{"monomerSequence": "GGCCGGCAUGGUCCCAGCCUCCUCGCUGGCGCCGGCUGGGCAACAUUCCAAGGGGACCGUCCCCUCGGUGAUGGCGAAUGGGACCCA [G50A A70G]", "categoryLabel": "HIGH"}
{"monomerSequence": "GGCCGGCAUGGUCCCAGCCUCCUCGCUGGCGCCGGCUGGGCAACAUUCCGAUGGGACCGUCCCCUCGGUAAUGGCGAUUGGGACCCA [G52U A78U]", "categoryLabel": "MEDIUM"}
{"monomerSequence": "AGCCGGCAUGGUCCCAGCCUCCUCGCUGGCGCCGGCUGGGCAACAUUCCGAGGGGACCGUCCCCUCGGGAAUGGCGAAUGGGACCCA [G1A U69G]", "categoryLabel": "MEDIUM"}
{"monomerSequence": "GGCCGGCAUGGUCCCAGCCUCCUCGCUGGCGCCGGCUGGGCUACAUUCCGAGGGGACCGUCCCCUCGGUAAUCGCGAAUGGGACCCA [A42U G73C]", "categoryLabel": "MEDIUM"}
{"monomerSequence": "GGCGGGCAUGGUCCCAGCCUCCUCGCUGGCGCCGGCUGGGCAACAUUCCGAGGGGACCGUCCCCUCGGUAAUGCCGAAUGGGACCCA [C4G G74C]", "categoryLabel": "LOW"}
{"monomerSequence": "GGCCGGCAUGGUCCCAGCCUCCUCGCUCGCGCCGGCUGGGCAACAUUCCGAGGGGACCGUCCCCUGGGUAAUGGCGAAUGGGACCCA [G28C C66G]", "categoryLabel": "LOW"}
{"monomerSequence": "GGCCGGCAUGGUUCCAGCCUCCUCGCUGGCGCCGGCUGGGCAACAUUCCGAGGGGACCGUCCCCUCGGUAAUGCCGAAUGGGACCCA [C13U G74C]", "categoryLabel": "LOW"}
{"monomerSequence": "GGCCAGCAUGGUCCCAGCCUCCUCGCUGGCGCCGGCUGGGCAACAUUCCGAGGGGACCGUCCCCUCGGUAAUGGCGAAUGGGACCAA [G5A C86A]", "categoryLabel": "LOW"}
{"monomerSequence": "GGCCGGCAUGGUCCCAGCCUCCUCGCGGGCGCCGGCUGGGCAACAUUCCGAGGGGACCGUCCCCUCGGUAAUGGCGAAUGGGACCCG [U27G A87G]", "categoryLabel": "HIGH"}
{"monomerSequence": "GGCGGGCAUGGUCCCAGCCUCCUCGCUGGCGCCGGCUGGGCAACAUUCCGAGGGGACCGUCCCCUAGGUAAUGGCGAAUGGGACCCA [C4G C66A]", "categoryLabel": "MEDIUM"}

# classify by self-cleavage band: GGCCGGCAUGGUCCCCGCCUCCUCGGUGGCGCCGGCUGGGCAACAUUCCGAGGGGACCGUCCCCUCGGUAAUGGCGAAUGGGACCCA [A16C C26G]
HIGH

Band assignment needed for GGCCGGCAUGGUUCCAGCCUCCUCGCUGGCGCCGGCUGGGCAACAUUCCGAGGGGACCGUCCCCUCGGUAAUGGCGAAUGGUACCCA [C13U G82U] please.
MEDIUM

Field: class (self-cleavage) — entry: GGCCGGCUUGGUCCCAGCCUCCUCGCUGGCGCCGGCUGGGCAACAUUCCGAGGGGACCGCCCCCUCGGUAAUGGCGAAUGGGACCCA [A8U U60C]
HIGH

In plain terms, what class is GGCCGGCAUCGUCCCAGCCUCCUCGCUGGCGCCGGCUGGGCAACAUUCCGAGGGGACCGUCCCCUCGGUAGUGGCGAAUGGGACCCA [G10C A71G] ?
HIGH

Hello team, could you let me know which band the following variant falls into: GGCUGGCAUGGUCCCAUCCUCCUCGCUGGCGCCGGCUGGGCAACAUUCCGAGGGGACCGUCCCCUCGGUAAUGGCGAAUGGGACCCA [C4U G17U]
LOW

Band for the recorded self-cleavage of GGCCGGCAUGCUCCCAGCCUCCUCGCUGGCGCCGGCUGGGCAACAUUCCGAGGGGACCGUCCCCUCGGUAAUGGCGACUGGGACCCA [G11C A78C] ?
LOW

Which bin should I file GGCCGGCAUGGUCCCAGCCUCCUCGCUGGCGCCGGCUGGGCAACAUUCCGAGGGGACCGGCCCCUCGGUAAUGGCGAAUGGGAGCCA [U60G C84G] under?
HIGH

The entry to classify is GGCCGGCAUGGUCCCAGCCUCCUCGCUGGCGCCGGCUGGGCAACAGCCCGAGGGGACCGUCCCCUCGGUAAUGGCGAAUGGGACCCA [U46G U47C] ; which class holds it?
HIGH

Note: place this variant into its band. Item: GGCCGGCAUGGUCCAAGCCUCCUCGCUGGCGCCGGCUGGGCAACAUUCCGAGGGGACCGUCCCCUCGGUAAUGGCGUAUGGGACCCA [C15A A77U]
MEDIUM

Which self-cleavage band matches GGCCGGCAUGGUCCCAGCCUCCUCCCUGGCGCCGGCUGGGCAACAUUCCGAGGGGACCAUCCCCUCGGUAAUGGCGAAUGGGACCCA [G25C G59A] ?
LOW

Where do the numbers come from? From the RNAGym collection of RNA variant scans (doi:10.7554/elife.80360).
